- System: SNB-19
- Procedure Summary: Cytotoxicity against human SNB19 cells
- Format: functional
- Condition Label: read-out: pTGI (converted)
Please provide measured log10(TGI) for the entries that follow.
Quick note: numbers are log10 of TGI, with µM as the unit.

Prompt line: Returns the measured log10(TGI) for the input compound. Input: COc1cc(/C=C/c2cc(OC)c3c(C/C=C(\C)CCC=C(C)C)c[nH]c3c2)cc2c1O[C@]1(C)CC[C@@H](O)C(C)(C)[C@H]1C2
Response line: 1.13

Prompt line: Moving on to the next compound: COc1cc(/C=C/c2cc(O)c3c(c2)C[C@@H]2C(C)(C)[C@H](O)CC[C@@]2(C)O3)cc2[nH]cc(CC=C(C)C)c12
Response line: 1.55

Prompt line: Moving on to the next compound: COc1cc(/C=C/c2cc(OC)c3cc[nH]c3c2)cc2c1O[C@]1(C)CC[C@@H](O)C(C)(C)[C@H]1C2
Response line: 0.85

Prompt line: Moving on to the next compound: CC1(C)[C@H](O)CC[C@@]2(C)Oc3c(O)cc(/C=C/c4cc(O)c5cc[nH]c5c4)cc3C[C@H]12
Response line: 1.43

Prompt line: Moving on to the next compound: COc1cc(/C=C/c2cc(O)c3cc[nH]c3c2)cc2c1O[C@]1(C)CC[C@@H](O)C(C)(C)[C@H]1C2
Response line: 1.26

Prompt line: Moving on to the next compound: COc1cc(/C=C/c2cc(OC)c3c(CC=C(C)C)c[nH]c3c2)cc2c1O[C@]1(C)CC[C@@H](O)C(C)(C)[C@H]1C2
Response line: 0.62

Prompt line: Moving on to the next compound: COc1cc(/C=C/c2cc(O)c3c(c2)C[C@@H]2C(C)(C)[C@H](O)CC[C@@]2(C)O3)cc2c1ccn2C
Response line: 1.14

Prompt line: Moving on to the next compound: COc1cc(/C=C/c2cc(O)c3c(CC=C(C)C)c[nH]c3c2)cc2c1O[C@]1(C)CC[C@@H](O)C(C)(C)[C@H]1C2
Response line: 1.70
